Taken from PubChem BioAssay (NCI).

System: NCI-H460 lung
Experiment: NCI-60 one-dose screen, 48 h
Conditions: 10 µM unless noted
About 83,000 compounds went through this panel and 20% of them were active in at least one assay; those are over-represented in the sample as a whole. Active and inactive are the calls of the source. How the source made its calls: active means growth percent below 10; inactive means the rest.
Outcomes: 1.0 for active, 0.0 for inactive

{"columns": ["compound", "cat"],
 "data": [
  ["OB([O][Hg][c]1ccccc1)[O][Hg][c]1ccccc1", 1.0],
  ["CCC[CH2][Sn]1([CH2]CCC)[O]C(=O)c2cccc([N+](=O)[O-])c2C(=O)[O]1", 1.0],
  ["CNC(=O)O/N=C(/C)c1ccc(Cl)cc1", 0.0],
  ["Cn1cnnc1[S-].[Au+].c1ccc([PH+](c2ccccc2)c2ccccc2)cc1", 0.0],
  ["[Br][Pb]([c]1ccccc1)([c]1ccccc1)[c]1ccccc1", 1.0],
  ["Cc1ccc(C[As+](c2ccccc2)(c2ccccc2)c2ccccc2)cc1", 1.0],
  ["CNC(=O)Oc1ccccc1", 0.0],
  ["CCCCCCCC(=O)OCC/C=C/C1OC1C1OC(=O)/C=C\\C=C\\c2nc(oc2C)/C=C(/C)CCC2OC2C1OC(=O)NC(C)=O (configuration not stated)", 1.0],
  ["COc1ccc2c(c1)NC1=C(C(=O)OC1)C2c1cc(OC)c(OC)c(OC)c1 (configuration not stated)", 1.0],
  ["NC(=O)OCC(CO)(c1ccccc1)c1ccccc1", 0.0],
  ["CC(=O)C1CCC2C3CC=C4CC(OC(=O)Cc5ccc(N(CCCl)CCCl)cc5)CCC4(C)C3CCC12C (configuration not stated)", 0.0],
  ["Cc1ccccc1O", 0.0],
  ["CC(C)(NC(=O)c1nn(CCCCCF)c2ccccc12)c1ccccc1", 0.0],
  ["Oc1ccc(Br)cc1CN1CCN(Cc2ccc(Cl)cc2)CC1", 0.0],
  ["CCN1CC2(CN(CC)C1=S)C(=O)NC(=O)NC2=O", 0.0],
  ["C=C=[CH][Sn]([c]1ccccc1)([c]1ccccc1)[c]1ccccc1", 1.0],
  ["COC(=O)C1CC2c3ccccc3C1c1ccccc12 (configuration not stated)", 0.0],
  ["CC1([N+](=O)[O-])COP(=O)(Nc2ccc(F)cc2)OC1 (configuration not stated)", 0.0],
  ["CC12CCC(=O)C=C1C(O)CC1C2CCC2(C)C(O)CCC12 (configuration not stated)", 0.0],
  ["CC(C)[C@]12O[C@H]1[C@@H]1O[C@]13[C@]1(O[C@H]1C[C@H]1C4=C(CC[C@@]13C)C(=O)OC4)[C@@H]2OC(=O)OC(C)(C)C", 1.0],
  ["ClCCN(CCCl)c1ccc(/C=C\\c2ccnc3ccccc23)cc1", 0.0],
  ["C=CC(=O)NC(O)C(Cl)(Cl)Cl (configuration not stated)", 0.0]
]}
